B1: SNX3 (parent)
chain: FLRQLPFRGDDGIFDDNFIEERKQ

Variants of: B1
Test: protein stability index of a GFP-peptide fusion (GPS, HEK-293T) (PSI 1-6); higher = more stable;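 note: lentivirally expressed fusions sorted by FACS into six bins by GFP to DsRed ratio, PSI derived from sequencing read proportions per bin multiplied by bin number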
Conditions: c terminus: a fixed tail appended
endpoint_name: protein stability index

mutation_string=D16G endpoint_name="protein stability index" val=3.18
mutation_string=D15W endpoint_name="protein stability index" val=2.89
mutation_string=R8E endpoint_name="protein stability index" val=3.94
mutation_string=E20Y endpoint_name="protein stability index" val=2.84
mutation_string=G12S endpoint_name="protein stability index" val=3.21
mutation_string=F7Q endpoint_name="protein stability index" val=3.59
mutation_string=G9W endpoint_name="protein stability index" val=3.02
mutation_string=D10T endpoint_name="protein stability index" val=3.2
mutation_string=F14L endpoint_name="protein stability index" val=3.56
mutation_string=I19D endpoint_name="protein stability index" val=3.98
mutation_string=R3W endpoint_name="protein stability index" val=1.83
mutation_string=R8W endpoint_name="protein stability index" val=3.08
mutation_string=I13A endpoint_name="protein stability index" val=4.22
mutation_string=E20H endpoint_name="protein stability index" val=2.29
mutation_string=I13D endpoint_name="protein stability index" val=4.24
mutation_string=I13E endpoint_name="protein stability index" val=4
mutation_string=F7K endpoint_name="protein stability index" val=4
mutation_string=I19P endpoint_name="protein stability index" val=4.04
mutation_string=D15M endpoint_name="protein stability index" val=3.28
mutation_string=D10Q endpoint_name="protein stability index" val=3.56
mutation_string=L2P endpoint_name="protein stability index" val=4.66
mutation_string=E21M endpoint_name="protein stability index" val=2.81
mutation_string=D16F endpoint_name="protein stability index" val=2.56
mutation_string=E20T endpoint_name="protein stability index" val=2.24
mutation_string=Q24N endpoint_name="protein stability index" val=4.03
mutation_string=G12N endpoint_name="protein stability index" val=3.23
mutation_string=D15K endpoint_name="protein stability index" val=2.96
mutation_string=E21Y endpoint_name="protein stability index" val=2
mutation_string=P6G endpoint_name="protein stability index" val=3.45
mutation_string=G9Q endpoint_name="protein stability index" val=2.98
mutation_string=R22F endpoint_name="protein stability index" val=3.44
mutation_string=I13M endpoint_name="protein stability index" val=3.03
mutation_string=E21R endpoint_name="protein stability index" val=3.19
mutation_string=F1R endpoint_name="protein stability index" val=4.59
mutation_string=R22V endpoint_name="protein stability index" val=3.12
mutation_string=F14I endpoint_name="protein stability index" val=3.76
mutation_string=I13W endpoint_name="protein stability index" val=2.72
mutation_string=D11A endpoint_name="protein stability index" val=4.01
mutation_string=K23D endpoint_name="protein stability index" val=4.48
mutation_string=G12E endpoint_name="protein stability index" val=3.64
mutation_string=R8A endpoint_name="protein stability index" val=3.15
mutation_string=P6S endpoint_name="protein stability index" val=3.26
mutation_string=F7G endpoint_name="protein stability index" val=3.5
mutation_string=R8Q endpoint_name="protein stability index" val=4.22
mutation_string=D11K endpoint_name="protein stability index" val=3
mutation_string=G12L endpoint_name="protein stability index" val=3.01
